B1: CSNK1G1 (parent)
chain: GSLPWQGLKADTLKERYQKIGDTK

variants of: B1; assay: protein stability index of a GFP-peptide fusion (GPS, HEK-293T) (PSI 1-6); higher = more stable; settings: c terminus: a fixed tail appended;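 further: lentivirally expressed fusions sorted by FACS into six bins by GFP to DsRed ratio, PSI derived from sequencing read proportions per bin multiplied by bin number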
Returns one of Criterion met or Criterion not met; Criterion met when protein stability index is >= 4.

Does protein stability index meet or surpass 4 for "GSLPWQGLKADGLKERYQKIGDTK" ?
Criterion not met

Does protein stability index meet or surpass 4 for "GSLPLQGLKADTLKERYQKIGDTK" ?
Criterion met

Does protein stability index meet or surpass 4 for "GSLPWQGLKADTLIERYQKIGDTK" ?
Criterion not met

Does protein stability index meet or surpass 4 for "GSLPWQGLKADTLKLRYQKIGDTK" ?
Criterion not met

Does protein stability index meet or surpass 4 for "GSLPWQGLKADTLKERYYKIGDTK" ?
Criterion not met

Does protein stability index meet or surpass 4 for "GSLPWQGLKADTLKERYQKIGHTK" ?
Criterion not met

Does protein stability index meet or surpass 4 for "GSLYWQGLKADTLKERYQKIGDTK" ?
Criterion not met

Does protein stability index meet or surpass 4 for "GSLPWQHLKADTLKERYQKIGDTK" ?
Criterion not met

Does protein stability index meet or surpass 4 for "GSLPWLGLKADTLKERYQKIGDTK" ?
Criterion not met

Does protein stability index meet or surpass 4 for "GSLPWQGLKADTLKERYQKIWDTK" ?
Criterion not met

Does protein stability index meet or surpass 4 for "GSLPWQGLKADTLKERYQKIGDKK" ?
Criterion met

Does protein stability index meet or surpass 4 for "GSLPWKGLKADTLKERYQKIGDTK" ?
Criterion met

Does protein stability index meet or surpass 4 for "GSLPWQGLKADTLKERYQKIYDTK" ?
Criterion not met

Does protein stability index meet or surpass 4 for "GSLPWQGKKADTLKERYQKIGDTK" ?
Criterion met

Does protein stability index meet or surpass 4 for "GSLPWQGLKADTLKERYQKIQDTK" ?
Criterion met

Does protein stability index meet or surpass 4 for "GSLPWQGLKADTLKEKYQKIGDTK" ?
Criterion met

Does protein stability index meet or surpass 4 for "GSLPWQGLKADTLKERYQKIGDFK" ?
Criterion not met

Does protein stability index meet or surpass 4 for "GSLPWQGLKADTLLERYQKIGDTK" ?
Criterion not met

Does protein stability index meet or surpass 4 for "GSLPWQGLKADTTKERYQKIGDTK" ?
Criterion met

Does protein stability index meet or surpass 4 for "GSLPWQGLKARTLKERYQKIGDTK" ?
Criterion not met
